Target: Bcl-2 protein (Recombinant Human Bcl-2 Protein) (Homo sapiens)
Construct: purchased Novus NBP2-34889
Sequence (P10415 whole entry): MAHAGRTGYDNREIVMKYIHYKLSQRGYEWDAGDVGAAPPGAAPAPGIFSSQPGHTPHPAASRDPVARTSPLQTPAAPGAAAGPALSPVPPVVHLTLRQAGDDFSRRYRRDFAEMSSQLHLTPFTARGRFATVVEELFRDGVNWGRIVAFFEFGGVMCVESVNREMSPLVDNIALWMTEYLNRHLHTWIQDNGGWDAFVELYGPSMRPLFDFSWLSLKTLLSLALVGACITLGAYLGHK
Assay: Binding evaluation of mixture library compounds to Bcl-2 using AS-MS (affinity selection mass spectrometry)
Settings: AS-MS, mixture of 1200 compounds, Bcl-2; ASMS Ratio(%)=(A−C)/B×100; replicate n = 1
Can you tell me ASMS ratio (%) n = 1 for the items I'm about to list?
Hi! Could you send only the number? It should be in %, unit omitted.

Provide the documented ASMS ratio (%) n = 1 with Bcl-2 protein (Recombinant Human Bcl-2 Protein) (Homo sapiens) as the system for CCOc1cccc(-c2ccc(CN3CCN(c4ccc(C(=O)NCC(F)(F)F)nn4)CC3)cc2C)c1 [B1K073-01]
3.1

Now try CCOc1cncc(C#Cc2ccccc2CN2CCN(c3ccc(C(=O)NCC(F)(F)F)nn3)CC2)c1 [B1K096-01] .
0.0

Another molecule: CCOc1cccc(C#Cc2cc(C(=O)N3CCN(c4ccc(C(=O)NCC(F)(F)F)nn4)CC3)cc(C(F)(F)F)c2)c1 [B1K019-01]
0.0

Now give it for CCOc1cncc(-c2cc(C(=O)N3CCN(c4ccc(C(=O)NCC56CC7CC(CC(C7)C5)C6)nn4)CC3)cc(C(F)(F)F)c2)c1 [B1A018-01] too.
−6.5

Try the molecule CCOc1cccc(-c2csc(CN3CCN(c4ccc(C(=O)NCC(F)(F)F)nn4)CC3)c2)c1 [B1K093-01]
2.7

Follow-up entry: CCOc1cccc(-c2ccc(CN3CCN(c4ccc(C(=O)NCC56CC7CC(CC(C7)C5)C6)nn4)CC3)c(CC)c2)c1 [B1A075-01]
31.3

Next up: CCOc1cccc(-c2cc(C(=O)N3CCN(c4ccc(C(=O)NCC(F)(F)F)cc4)CC3)cc(C(C)(C)C)c2)c1 [B1K037-01]
0.8

How about this molecule: CCOc1cncc(-c2ccccc2CN2CCN(c3ccc(C(=O)NCC(F)(F)F)cc3)CC2)c1 [B1K046-01]
−0.1

Would you kindly repeat that for CCOc1cccc(-c2ccc(CN3CCN(c4ccc(C(=O)NCC(F)(F)F)cc4)CC3)c(OC)c2)c1 [B1K053-01] ?
−0.5

* * *

Target: Bcl-2 protein (Recombinant Human Bcl-2 Protein) (Homo sapiens)
Construct: purchased Novus NBP2-34889
Experiment: Binding evaluation of mixture library compounds to Bcl-2 using AS-MS (affinity selection mass spectrometry)
Conditions: n = 1
Experimental: […] Then, analysis of the 1200 compounds was carried out for samples A, B, and C with TraceFinder 5.1 (Thermo Fisher Scientific) and CHANCE Software (in-house), and the ASMS Ratio (%) was calculated according to the following calculation formula. […]
property.label: ASMS ratio (%)
Just the number in %, nothing appended.

Name the recorded ASMS ratio (%) for CCOc1cncc(-c2cc(C(=O)N3CCN(c4ccc(C(=O)NS(=O)(=O)c5ccc(NCCSc6ccccc6)c(C(F)(F)F)c5)cc4)CC3)cc(C(F)(F)F)c2)c1 [B2R040-01] .
2.6

Try this compound too: CCOc1cncc(-c2cc(CN3CCN(c4ccc(C(=O)NS(=O)(=O)C(C)(C)C)nn4)CC3)cc(OC(F)(F)F)c2)c1 [B2L090-01]
0.0

Please answer likewise for CCOc1cccc(-c2ccc(C(=O)N3CCN(c4ccc(C(=O)NS(=O)(=O)c5ccc(NCCSc6ccccc6)c(C(F)(F)F)c5)cc4)CC3)cc2F)c1 [B2R027-01]
−3.7

Same read-out for CCOc1cccc(-c2ccccc2CCC(=O)N2CCN(c3ccc(C(=O)NS(=O)(=O)c4ccc(NCCSc5ccccc5)c(C(F)(F)F)c4)nn3)CC2)c1 [B2R011-01] ?
17.7

Would you kindly repeat that for CCOc1cccc(-c2cc(CN3CCN(c4ccc(C(=O)NS(=O)(=O)C(C)(C)C)cc4)CC3)cc(OCC)c2)c1 [B2L055-01] ?
0.0

# repeat for CCOc1cccc(-c2ccc(C(=O)N3CCN(c4ccc(C(=O)NS(=O)(=O)CCC(F)(F)F)cc4)CC3)c3ccccc23)c1 [B2N035-01]
0.0

Entry to check: CCOc1cncc(-c2ccccc2CCC(=O)N2CCN(c3ccc(C(=O)NS(=O)(=O)C(C)(C)C)nn3)CC2)c1 [B2L012-01]
4.3

And then CCOc1cccc(-c2cc(CN3CCN(c4ccc(C(=O)NS(=O)(=O)c5ccc(NCCSc6ccccc6)c(C(F)(F)F)c5)nn4)CC3)cc(OCC)c2)c1 [B2R081-01] , what is it?
21.1
